Origin of measurements: paper PMC10244618

Entries and their enrichment values follow.
B1: NF2 (merlin) isoform 7, human, full length (507 aa, lacks exons 2-3 = isoform-1 residues 39-121; exon-16 C-terminus), P35240-4 (parent)
chain: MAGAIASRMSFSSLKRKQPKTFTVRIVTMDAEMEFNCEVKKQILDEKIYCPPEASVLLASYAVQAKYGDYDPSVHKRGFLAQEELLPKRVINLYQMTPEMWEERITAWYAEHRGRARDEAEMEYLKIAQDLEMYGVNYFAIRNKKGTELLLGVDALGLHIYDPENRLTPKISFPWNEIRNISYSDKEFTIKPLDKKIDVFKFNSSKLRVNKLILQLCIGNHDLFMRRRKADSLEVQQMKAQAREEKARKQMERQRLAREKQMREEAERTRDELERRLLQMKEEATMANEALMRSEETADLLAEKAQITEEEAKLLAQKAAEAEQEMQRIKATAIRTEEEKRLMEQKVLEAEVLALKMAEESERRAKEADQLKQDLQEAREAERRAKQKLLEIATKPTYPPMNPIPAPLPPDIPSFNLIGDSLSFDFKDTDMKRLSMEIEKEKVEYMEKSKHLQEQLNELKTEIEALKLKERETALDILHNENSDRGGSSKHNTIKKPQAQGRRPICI

Variants of: B1
Test name: reverse yeast two-hybrid deep mutational scan (rY2H-seq): NF2 isoform 7 mutant library as bait mated with wild-type prey strains; selection on medium lacking adenine for non-interacting pairs; NextSeq paired-end sequencing; enrichment vs …
Measurement setup: with PIK3R3 (phosphatidylinositol 3-kinase regulatory subunit gamma), Q92569; yeast diploids after mating (RBait_S3 x RPrey_S3), 30 °C, selection for reporter genes on NB agar; human tyrosine kinase ABL2 co-expressed as the active kinase …; HIGHER = WEAKER BINDING (the opposite of display enrichments): higher = stronger loss of interaction: reverse Y2H selects yeast in which bait and prey do NOT interact (growth without adenine), so a …; hits-only table; scale: rY2H score; numbering: uniprot, sequence starts at 1
Please respond with just the number, no unit label.

Sequence change: P407T
Numeric result: 2.62

response.value for M431A (field: enrichment) = 2.23

response.value for E339G (field: enrichment) = 2.91
